# System: NCI-H226
# Protocol Notes: NCI tumour cell line growth inhibition, 48 h
Calls of active or inactive are those of the source. Cut-off read from the data, not from the text of the source: active = GI50 up to about 1.1 µM and inactive = higher.
Outcomes: yes (1) for active, no (0) for inactive

N=C(N)Nc1ccc(CC(N)NCC(=O)O)cc1 (stereo not given) :: no (0)
O=C1C/C(=C\c2ccccc2)C(=O)c2ccccc2N1 :: no (0)
N#CC(C(=O)CCC(=O)Nc1ccc(Cl)c(Cl)c1)c1ccccc1 (stereo not given) :: no (0)
Nc1ncnc2c1ncn2C1CCC(CP(=O)(O)O)C1 (stereo not given) :: no (0)
c1ccc2c(c1)CCc1[nH]c3c(c1-2)-c1ccccc1CC3 :: no (0)
C=C1c2nc3ccccc3n2C=C(c2ccccc2)N1c1ccc(OC)cc1 :: no (0)
Cc1ccc(Nc2nc(N)nc3c2ncn3C2OC(CO)C(O)C2O)cc1 (stereo not given) :: no (0)
O=C1c2ccccc2CC12Cc1ccc3c(c1C2=O)CCCC3 (stereo not given) :: no (0)
COc1ccc(/N=C(/[N-]n2c(=O)c(C)nn(C)c2=S)N(c2ccc(OC)cc2)c2n[n+]3c(=O)c(C)nn(C)c3s2)cc1 :: no (0)
CC(=O)Oc1c2c(c(CC=C(C)C)c3c1C(=O)C1=C[C@@H]4CC5C(C)(C)OC(C/C=C(/C)C(=O)O)(C4=O)[C@@]15O3)OC(C)(CCC=C(C)C)C=C2 (stereo not given in full) :: yes (1)

###

# System: ACHN
# Protocol Notes: NCI tumour cell line growth inhibition, 48 h
Active and inactive are the calls of the source. No stated cut-off is given here; in the data, active = GI50 up to about 1.1 µM and inactive = higher.
Classes used: TRUE for active, FALSE for inactive

O=C(Nc1ccc(C(F)(F)F)cc1[N+](=O)[O-])c1cccnc1 :: FALSE
COC(=O)C1=CC2CCCC1(O)C(C(C)=O)C2 (configuration not stated) :: FALSE
COc1ccc2[nH]c3c(c2c1)COc1ccccc1C3=O :: FALSE
C=CC1(C(=O)O)CCC(C(C)(C)C)CC1 (configuration not stated) :: FALSE
COc1c(C)c(OC)c2c(c1O)[C@@H]1[C@@H]3Cc4c(OC)c(C)c(OC)c(O)c4[C@H](CNC(=O)c4ccc5ccccc5n4)N3[C@@H](C#N)[C@H](C2)N1C :: TRUE
COc1ccc(C2Oc3cc(OC)c(O)c(C)c3[C@H]2C)cc1 (some centres not stated) :: FALSE
CCN(CC)CCOc1ccc(/C=C(\C#N)c2ccc(OCCN(CC)CC)cc2)cc1 :: FALSE
COc1cc2oc(-c3ccc4c(c3)OCO4)c(OC)c(=O)c2c(OC)c1OC :: FALSE
Cc1cn(C2CC(N)C(C(=O)O)O2)c(=O)[nH]c1=O (configuration not stated) :: FALSE
O=c1[nH]nc(-c2ccccc2)n1/N=C\CC/C=N\n1c(-c2ccccc2)n[nH]c1=O :: FALSE
CCOc1cccc2cccnc12 :: FALSE
Oc1nnnc2c1sc1ncccc12 :: FALSE

###

# System: SNB-19
# Protocol Notes: NCI tumour cell line growth inhibition, 48 h
The source made the active and inactive calls. No stated cut-off is given here; in the data, active = GI50 up to about 1.1 µM and inactive = higher.
Below, each entry is listed alongside its reported GI50.
Result Type: GI50

[N-]=[N+]=CC(=O)CCC(=O)N(c1ccccc1)c1ccccc1 :: > 10 µM (inactive)
COc1ccc2oc(=O)c(-c3csc(C)n3)cc2c1 :: 28.8 µM (inactive)
CC1(C)CCC[C@@]2(C)C1CC[C@@]1(CO1)[C@@H]2/C=C\C(C=O)CC=O (stereo partly specified) :: > 100 µM (inactive)
O=c1c(O)c(-c2ccc(O)c(O)c2)oc2cc(O)cc(O)c12 [QUERCETIN] :: 61.2 µM (inactive)
COc1ccc(-c2cc(O)c3cc(OC)ccc3n2)cc1 :: > 100 µM (inactive)
O=C1NCCS(=O)(=O)N2CCC[C@@H]12 :: > 100 µM (inactive)
N#Cc1sc2nc3ccccc3n2c1N :: > 100 µM (inactive)
COc1cc([C@H]2CC(=O)C[C@H](c3cc(OC)c(OC)c(OC)c3)C23C(=O)c2ccccc2C3=O)cc(OC)c1OC :: > 100 µM (inactive)
C/C(C=O)=C/[C@@]1(C)O[C@@H](C)[C@@](C)(O)[C@@H]1O :: 61.1 µM (inactive)
CC(=O)NNc1nc(C)c(C(=O)/C=C/c2ccc(NC(C)=O)cc2)s1 :: > 100 µM (inactive)
COc1ccc2c(c1)C1Oc3ccccc3CC1CO2 (stereo unspecified) :: > 100 µM (inactive)
